Where do these numbers come from? They come from ChEMBL document CHEMBL1201862.

Biological target: Endoribonuclease toxin MazF (Escherichia coli K-12)
Sequence (P0AE70 whole entry): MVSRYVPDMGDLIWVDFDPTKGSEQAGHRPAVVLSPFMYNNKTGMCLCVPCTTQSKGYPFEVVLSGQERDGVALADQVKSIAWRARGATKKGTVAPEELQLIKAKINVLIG
Test: MazF toxin RNase activators, dose response, biochemical, fluorescence, single-stranded RNA substrate, uHTS hits (AID 588481)
Format: functional
Activity calls are given as the source filed them. No stated cut-off is given here; in the data, active = EC50 of 20 µM or less and inactive = more.
Allowed answers: active, inactive

Here's what some known entries look like.
| compound | cat |
| --- | --- |
| O=c1c(O)c(-c2ccc(O)c(O)c2)oc2cc(O)ccc12 | inactive |
| COc1cc(NC(=O)c2ccccc2)c(OC)cc1NC(=O)Cc1ccc(Br)cc1 | inactive |
| Cc1[nH][nH]c(=O)c1C(c1c(C)[nH][nH]c1=O)c1cn(Cc2ccccc2Cl)c2ccccc12 | inactive |
| C=CCN1C(=O)/C(=C2/Sc3ccccc3N2CC)SC1=S | inactive |
| CCOC(=O)c1ccc(CC(=O)c2oc3cc(O)ccc3c2C)o1 | inactive |
| Cc1ccc(NC(=O)c2ccc(NCc3ccco3)c([N+](=O)[O-])c2)cc1Cl | inactive |
| CCc1ccc(C2=NN(S(C)(=O)=O)C(c3cccs3)C2)cc1 (centres undefined) | inactive |
| N#CC(C(=O)NCc1ccccc1)c1nc2ccccc2nc1N1CCCC1 (centres undefined) | active |

Pending compound:
Q: Query: recorded result category for Cc1cc(C)n(-c2nc3nonc3nc2Nc2cccc(C)c2C)n1 in this test
A: inactive
